// data source = patent US20250195521A1

Molecular target: NRAS G12C (Homo sapiens (Human), UniProt P01111+P62937, G12C)
Sequence (P01111 whole entry G12C): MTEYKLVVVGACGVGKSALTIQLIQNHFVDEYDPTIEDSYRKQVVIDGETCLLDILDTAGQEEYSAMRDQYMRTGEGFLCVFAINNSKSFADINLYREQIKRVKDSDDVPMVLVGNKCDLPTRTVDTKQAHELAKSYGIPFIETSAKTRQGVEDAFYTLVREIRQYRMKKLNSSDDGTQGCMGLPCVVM
Sequence (P62937 whole entry): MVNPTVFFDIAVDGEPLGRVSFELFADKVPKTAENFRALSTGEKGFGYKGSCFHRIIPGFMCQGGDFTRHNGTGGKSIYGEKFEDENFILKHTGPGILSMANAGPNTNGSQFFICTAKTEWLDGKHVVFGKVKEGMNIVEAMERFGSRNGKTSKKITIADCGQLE
Test: Ras-Raf disruption/FRET/MOA assay (BRAF RBD, Cyclophilin A)
Type: biochemical
Settings: read-out: NRAS G12C FRET data IC50
Description: Compound is present in plate wells as a 10-point 3-fold dilution series starting at a final concentration of 30 μM. After incubation at 25° C. for 3 hours, a mixture of Anti-His Eu—W1024 and anti-GST allophycocyanin is then added to assay sample wells at final concentrations of 10 nM and 50 nM, respectively, and the reaction incubated for an additional 1.5 hours. […]
pIC50: −log10 of the molar value.
// pIC50 lookup, one value per entry

Some solved entries appear below for comparison.
{"compound": "CCn1c(-c2cccnc2[C@H](C)OC)c2c3cc(ccc31)-c1csc(n1)C[C@H](NC(=O)[C@H](C(C)C)N(C)C(=O)N(C)[C@@H]1CCN(C)C1)C(=O)N1CCC[C@H](N1)C(=O)OCC(C)(C)C2", "pIC50": "6.00 to 7.00"}
{"compound": "CCn1c(-c2cccnc2[C@H](C)OC)c2c3cc(ccc31)-c1csc(n1)C[C@H](NC(=O)[C@H](C(C)C)N(C)C(=O)N1CC(OC)C1)C(=O)N1CCC[C@H](N1)C(=O)OCC(C)(C)C2 [Compound A354]", "pIC50": "6.00 to 7.00"}
{"compound": "CCn1c(-c2cccnc2[C@H](C)OC)c2c3cc(ccc31)-c1cc(O)cc(c1)C[C@H](NC(=O)[C@H](C(C)C)N(C)C(=O)[C@H]1CCN(C(C)=O)C1)C(=O)N1CCC[C@H](N1)C(=O)OCC(C)(C)C2", "pIC50": "7.00 to 8.00"}

Which pIC50 is listed for `CCn1c(-c2cccnc2[C@H](C)OC)c2c3cc(ccc31)-c1csc(n1)C[C@H](NC(=O)[C@H](C(C)C)N(C)C(=O)N1CCC[C@@H]1CN(C)C)C(=O)N1CCC[C@H](N1)C(=O)OCC(C)(C)C2` ?
6.00 to 7.00

Which pIC50 is listed for `CCn1c(-c2cccnc2[C@H](C)OC)c2c3cc(ccc31)-c1csc(n1)C[C@H](NC(=O)[C@H](C(C)C)N(C)C(=O)N1CC[C@H](O)C1)C(=O)N1CCC[C@H](N1)C(=O)OCC(C)(C)C2` ?
7.00 to 8.00

Which pIC50 is listed for `CCn1c(-c2cccnc2[C@H](C)OC)c2c3cc(ccc31)-c1cc(O)cc(c1)C[C@H](NC(=O)[C@H](C(C)C)N(C)C(=O)[C@H]1CCN(C(=O)OC3CN(C)C3)C1)C(=O)N1CCC[C@H](N1)C(=O)OCC(C)(C)C2` ?
7.00 to 8.00

Which pIC50 is listed for `CCn1c(-c2cccnc2[C@H](C)OC)c2c3cc(ccc31)-c1csc(n1)C[C@H](NC(=O)[C@H](C(C)C)N(C)C(=O)C1COC1)C(=O)N1CCC[C@H](N1)C(=O)OCC(C)(C)C2` ?
5.00 to 6.00
